Give Ki for every item shown.
- EXPERIMENTAL TARGET: System xc− (Sxc−, glutamate/cystine antiporter) (Homo sapiens, UniProt Q9UPY5)
- Construct: A number of glioma cell lines, including SNB-19, express markedly higher levels of Sxc^−; host or cells: SNB-19 human glioma cells
- Sequence (Q9UPY5 whole entry): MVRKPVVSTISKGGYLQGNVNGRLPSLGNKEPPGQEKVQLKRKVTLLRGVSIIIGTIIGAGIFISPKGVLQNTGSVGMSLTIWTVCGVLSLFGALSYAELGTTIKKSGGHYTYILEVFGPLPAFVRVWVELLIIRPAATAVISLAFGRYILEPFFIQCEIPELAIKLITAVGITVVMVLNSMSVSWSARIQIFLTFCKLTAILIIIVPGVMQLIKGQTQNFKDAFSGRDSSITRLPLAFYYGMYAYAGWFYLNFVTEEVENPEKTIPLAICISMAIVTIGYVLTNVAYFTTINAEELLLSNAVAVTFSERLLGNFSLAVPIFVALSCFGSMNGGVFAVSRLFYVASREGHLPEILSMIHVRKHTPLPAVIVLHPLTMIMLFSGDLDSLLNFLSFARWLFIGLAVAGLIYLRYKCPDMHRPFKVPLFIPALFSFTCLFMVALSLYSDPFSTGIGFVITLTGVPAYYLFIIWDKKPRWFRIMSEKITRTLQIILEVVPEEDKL
- Sequence (P08195 102-630 partner): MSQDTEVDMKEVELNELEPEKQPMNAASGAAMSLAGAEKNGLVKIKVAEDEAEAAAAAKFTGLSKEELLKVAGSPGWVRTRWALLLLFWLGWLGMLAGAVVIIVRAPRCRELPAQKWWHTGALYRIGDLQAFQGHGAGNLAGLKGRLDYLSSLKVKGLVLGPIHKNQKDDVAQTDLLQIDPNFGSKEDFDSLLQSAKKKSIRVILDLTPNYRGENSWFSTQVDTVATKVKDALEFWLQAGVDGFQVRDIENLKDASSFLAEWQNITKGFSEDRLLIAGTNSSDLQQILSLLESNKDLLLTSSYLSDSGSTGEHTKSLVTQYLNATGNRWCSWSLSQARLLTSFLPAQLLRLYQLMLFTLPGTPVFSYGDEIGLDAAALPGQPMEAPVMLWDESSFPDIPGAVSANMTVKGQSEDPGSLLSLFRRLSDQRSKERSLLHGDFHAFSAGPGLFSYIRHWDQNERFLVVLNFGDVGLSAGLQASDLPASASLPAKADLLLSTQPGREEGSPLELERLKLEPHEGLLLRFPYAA
- METHOD SUMMARY: Inhibition of 3H-L-Glu uptake into SNB-19 glioma cells under Cl-dependent (Na-free) conditions
- Assay type: cell-based
- CONDITION INFO: SNB-19 cells, 3H-L-Glu uptake; read-out: KI 3H-L-Glu Uptake
Express your answer in µM, writing the number without its unit.

Exam item: Could you share which Ki value was measured for Cc1onc(-c2c3ccccc3c(Cl)c3ccccc23)c1C(=O)NC(Cc1cc(Br)c(O)c(Br)c1)C(=O)O (centres unmarked) ?
Marked response: 15

Exam item: What about this molecule? CN(C)c1cccc2c(S(=O)(=O)NC(Cc3cc(Br)c(O)c(Br)c3)C(=O)O)cccc12 (centres unmarked)
Marked response: 25

The measurements presented in this section are drawn from patent US20150368213A1.
